The reported measurements were obtained from patent US10597388B2.

System: waterhemp (common waterhemp, Amaranthus rudis)
TEST PROTOCOL: Test E greenhouse herbicide test, pre- and postemergence
Type: in vivo
STATED CONDITIONS: 62 g ai/ha, Preemergence; scale 0 to 100 (0 no effect, 100 complete control)
Source text: […]
MEASURED PARAMETER: Plant response rating, Waterhemp
Numbers only.

INPUT: waterhemp (common waterhemp, Amaranthus rudis) / Plant response rating, Waterhemp / CC(=O)Oc1c(C)nn(C)c(=O)c1-c1c(C)sc2ccc(C)cc12 : value?
OUTPUT: 100

INPUT: Next: CCC(=O)Oc1c(C)nn(C)c(=O)c1-c1c(C)sc2c(C)cc(C)cc12
OUTPUT: 80

INPUT: Entry to check: CCOC(=O)Oc1c(C)nn(C)c(=O)c1-c1c(C)sc2ccc(C)cc12
OUTPUT: 90

Next:
INPUT: Lab request: please report Plant response rating, Waterhemp under test system waterhemp (common waterhemp, Amaranthus rudis) for CC(=O)Oc1c(C)nn(C)c(=O)c1-c1c(C)sc2c(C)cc(C)cc12
OUTPUT: 90
